assayExplanation: Log P by HPLC on reversed phase columns (EEC directive 79/831 Annex V.A8; methods [a], [b], [c])
Format: physicochemical
I'd appreciate it if you could supply LogP values for the items below.

Observe how each entry below is paired with its result.
N#Cc1cncn1CC(O)(c1ccccc1C(F)(F)F)C1CC1 (centres unmarked) [I-330] = 2.35^[a]
N#Cc1cncn1CC(O)(c1cc(F)c(F)cc1Br)C1(F)CC1 (centres unmarked) [I-688] = 2.36^[a]
N#Cc1cncn1CC(O)c1ccc(Oc2ccc(C(F)(F)F)nc2)nc1C(F)(F)F (centres unmarked) [I-143] = 2.56^[a]
N#Cc1cncn1CC(O)(CC1CC1)c1ccc(F)cc1Br (centres unmarked) [I-443] = 2.78^[a]

Now let's try a different one.
Identify LogP associated with the compound CC(O)(Cn1cncc1C#N)c1ccc(Oc2ccc(Br)cc2)cc1F (centres unmarked) [I-191]
3.29^[a]
